Hello, the source for this data is patent US12441768B2, in case you need it.

target: Wnt-responsive promoter (TCF/LEF); test: Wnt-dependent luciferase reporter assay
Where a SMILES comes first, the peptide text is derived from it.
PROPERTY: EC50

Answered examples (2):
# EC50 (compound: CC[C@H](C)[C@H](NC(=O)[C@H](CC(C)C)NC(=O)[C@H](Cc1ccccc1)NC(=O)[C@H](Cc1c[nH]c2ccccc12)NC(=O)[C@@H](N)CCSC)C(=O)N[C@@H](Cc1c[nH]cn1)C(=O)N[C@@H](Cc1ccccc1)C(=O)N[C@@H](Cc1c[nH]c2ccccc12)C(=O)NCC(=O)O [compound 163] (H-MWFLIHFWG-OH) ) is < 7.5 µM

# EC50 (compound: CC[C@H](C)[C@H](NC(=O)[C@H](CC(C)C)NC(=O)[C@H](Cc1ccccc1)NC(=O)[C@H](Cc1c[nH]c2ccccc12)NC(=O)[C@@H](N)CCSC)C(=O)N[C@@H](CCCCN)C(=O)N[C@@H](Cc1ccccc1)C(=O)N[C@@H](Cc1ccc(O)cc1)C(=O)NCC(=O)O [compound 151] (H-MWFLIKFYG-OH) ) is 15 to 22.5 µM

Now examine the next entry.
# EC50 (compound: CC[C@H](C)[C@H](NC(=O)[C@H](CC(C)C)NC(=O)[C@H](Cc1ccccc1)NC(=O)[C@H](Cc1c[nH]c2ccccc12)NC(=O)[C@@H](N)CCSC)C(=O)N[C@@H](CO)C(=O)N[C@@H](Cc1ccccc1)C(=O)N[C@@H](Cc1c[nH]c2ccccc12)C(=O)N[C@@H](CCCNC(=N)N)C(=O)NCC(=O)O [compound 49] (H-MWFLISFWRG-OH) ) is < 7.5 µM

---

experiment: in vitro; settings: % Viability non-Wnt responsive cells
Where a SMILES comes first, the peptide text is derived from it.
Reported viability values follow for various molecules
# unit: % | format: bare number

Answered examples (2):
# viability (molecule: CC[C@H](C)[C@@H]1NC(=O)[C@H](CC(C)C)NC(=O)[C@H](CC(C)C)NC(=O)[C@H](Cc2c[nH]c3ccccc23)NC(=O)[C@H](CCSC)NC(=O)[C@H](CCCNC(=N)N)NC(=O)[C@H](CO)NC(=O)[C@H](CCSC)NC(=O)[C@@H](N)CCCCNC(=O)CNC(=O)[C@H](Cc2c[nH]c3ccccc23)NC(=O)[C@H](Cc2ccccc2)NC(=O)[C@H](CO)NC1=O [compound 25] (HELM PEPTIDE1{K.M.S.R.M.W.L.L.I.S.F.W.G}$PEPTIDE1,PEPTIDE1,1:R3-13:R2$$$V2.0; bridges inferred) ) is 97

# viability (molecule: CC[C@H](C)[C@H](NC(=O)[C@H](CC(C)C)NC(=O)[C@H](Cc1ccccc1)NC(=O)[C@H](Cc1c[nH]c2ccccc12)NC(=O)[C@H](CCSC)NC(=O)[C@H](CCCNC(=N)N)NC(=O)[C@@H](NC(=O)[C@@H](N)CCSC)[C@@H](C)CC)C(=O)N[C@@H](CO)C(=O)N[C@@H](Cc1ccccc1)C(=O)N[C@@H](Cc1c[nH]c2ccccc12)C(=O)NCC(=O)O [compound 15] (H-MIRMWFLISFWG-OH) ) is 103

Now examine the next entry.
# viability (molecule: CC[C@H](C)[C@@H]1NC(=O)[C@H](CC(C)C)NC(=O)[C@H](Cc2ccccc2)NC(=O)[C@H](Cc2c[nH]c3ccccc23)NC(=O)[C@H](CCSC)NC(=O)[C@H](CCCNC(=N)N)NC(=O)[C@H](CO)NC(=O)[C@H](CCSC)NC(=O)[C@@H](N)CCCCNC(=O)CNC(=O)[C@H](Cc2c[nH]c3ccccc23)NC(=O)[C@H](CC(C)C)NC(=O)[C@H](CO)NC1=O [compound 28] (HELM PEPTIDE1{K.M.S.R.M.W.F.L.I.S.L.W.G}$PEPTIDE1,PEPTIDE1,1:R3-13:R2$$$V2.0; bridges inferred) ) is 91

---

test system: colon cancer cell line (SW480); assay type: cell-based
Where a SMILES comes first, the peptide text is derived from it.
PROPERTY: pIC50
FYI, pIC50 means -log10 of a concentration in mol per litre.

# pIC50 (molecule: CCCCCCCCCCCCCCCCCC(=O)N[C@@H](Cc1c[nH]c2ccccc12)C(=O)N(C)[C@@H](Cc1c[nH]c2ccccc12)C(=O)N[C@@H](CCC(=O)O)C(=O)NC(C)(CO)C(=O)N[C@H](C(=O)N[C@@H](CC(C)C)C(=O)N[C@@H](CC(=O)O)C(=O)N[C@@H](CCC(=O)O)C(=O)N[C@@H](Cc1c[nH]cn1)C(=O)NC(C)(C(=O)N[C@@H](CCC(N)=O)C(=O)N[C@@H](CCCNC(=N)N)C(=O)N[C@H](C(=O)N[C@@H](Cc1c[nH]c2ccccc12)C(=O)O)C(C)C)C(C)C)[C@@H](C)CC (single isomer, unassigned) ) is 5.77

# pIC50 (molecule: CC[C@@H]1NC(=O)[C@H]([C@@H](C)CC)NC(=O)[C@H](CC(C)C)NC(=O)[C@H](CC2CCCCC2)NC(=O)[C@H](Cc2c[nH]c3ccccc23)NC(=O)[C@@H](NC(C)=O)CCCCNC(=O)C[C@@H](C(=O)O)NC(=O)[C@H](Cc2c[nH]c3ccccc23)NC(=O)[C@H](C)NC1=O [compound 261] (HELM PEPTIDE1{[ac].K.W.[Cha].L.I.[Abu].A.W.D}$PEPTIDE1,PEPTIDE1,2:R3-10:R3$$$V2.0) ) is 5.40

# pIC50 (molecule: CCCCCCCCCCCCCCCC(=O)N[C@@H](Cc1c[nH]c2ccccc12)C(=O)N(C)[C@@H](Cc1c[nH]c2ccccc12)C(=O)N[C@@H](CCC(=O)O)C(=O)NC(C)(CO)C(=O)N[C@H](C(=O)N[C@@H](CC(C)C)C(=O)N[C@@H](CC(=O)O)C(=O)N[C@@H](CCC(=O)O)C(=O)N[C@@H](Cc1c[nH]cn1)C(=O)NC(C)(C(=O)N[C@@H](CCC(N)=O)C(=O)N[C@@H](CCCNC(=N)N)C(=O)N[C@H](C(=O)N[C@@H](Cc1c[nH]c2ccccc12)C(=O)NCC(=O)O)C(C)C)C(C)C)[C@@H](C)CC (single isomer, unassigned) ) is 5.54

More entries:
# pIC50 (molecule: CC[C@@H]1NC(=O)[C@H]([C@@H](C)CC)NC(=O)[C@H](CC(C)C)NC(=O)[C@H](C2CCCCC2)NC(=O)[C@H](Cc2c[nH]c3ccccc23)NC(=O)[C@@H](NC(C)=O)CCCCNC(=O)C[C@@H](C(=O)O)NC(=O)[C@H](Cc2c[nH]c3ccccc23)NC(=O)[C@H](C)NC1=O [compound 262] (HELM PEPTIDE1{[ac].K.W.[O=C([C@@H](N[*:1])C1CCCCC1)[*:2]].L.I.[Abu].A.W.D}$PEPTIDE1,PEPTIDE1,2:R3-10:R3$$$V2.0) ) is 5.30

---

conditions: % Viability non-Wnt responsive cells
Where a SMILES comes first, the peptide text is derived from it.
PROPERTY: viability (%)
# unit: % | format: bare number

# viability (compound: CC[C@H](C)[C@H](NC(=O)[C@H](CC(C)C)NC(=O)[C@@H](NC(=O)[C@H](Cc1c[nH]c2ccccc12)NC(=O)[C@H](CCSC)NC(C)=O)[C@@H](C)CC)C(=O)N[C@@H](CO)C(=O)N[C@@H](Cc1ccccc1)C(=O)N[C@@H](Cc1c[nH]c2ccccc12)C(=O)N(C)CC(=O)O [compound 221] (HELM PEPTIDE1{[ac].M.W.I.L.I.S.F.W.[Sar]}$$$$V2.0) ) is 101

# viability (compound: CC[C@H](C)[C@H](NC(=O)[C@H](CC(C)C)NC(=O)[C@H](Cc1ccccc1)NC(=O)[C@H](Cc1c[nH]c2ccccc12)NC(=O)[C@@H](N)CCSC)C(=O)N[C@@H](CO)C(=O)N[C@@H](Cc1ccccc1)C(=O)N[C@@H](C)C(=O)NCC(=O)O [compound 161] (H-MWFLISFAG-OH) ) is 103

Now examine the next entry.
# viability (compound: CC[C@H](C)[C@H](NC(=O)[C@H](CC(C)C)NC(=O)[C@H](CC(C)C)NC(=O)[C@H](Cc1c[nH]c2ccccc12)NC(=O)[C@H](CCSC)NC(=O)[C@H](CCCNC(=N)N)NC(=O)[C@H](CO)NC(=O)[C@@H](N)CCSC)C(=O)N[C@@H](CO)C(=O)N[C@@H](Cc1ccccc1)C(=O)N[C@@H](Cc1c[nH]c2ccccc12)C(=O)NCC(=O)O [compound 60] (H-MSRMWLLISFWG-OH) ) is 101

---

molecular target: β-catenin (Homo sapiens, UniProt P35222); test: KD50 measurement using competitive fluorescence polarization (FP) with labelled TCF4; type: binding; details: fluorescence polarization, β-catenin
Sequence (P35222 whole entry): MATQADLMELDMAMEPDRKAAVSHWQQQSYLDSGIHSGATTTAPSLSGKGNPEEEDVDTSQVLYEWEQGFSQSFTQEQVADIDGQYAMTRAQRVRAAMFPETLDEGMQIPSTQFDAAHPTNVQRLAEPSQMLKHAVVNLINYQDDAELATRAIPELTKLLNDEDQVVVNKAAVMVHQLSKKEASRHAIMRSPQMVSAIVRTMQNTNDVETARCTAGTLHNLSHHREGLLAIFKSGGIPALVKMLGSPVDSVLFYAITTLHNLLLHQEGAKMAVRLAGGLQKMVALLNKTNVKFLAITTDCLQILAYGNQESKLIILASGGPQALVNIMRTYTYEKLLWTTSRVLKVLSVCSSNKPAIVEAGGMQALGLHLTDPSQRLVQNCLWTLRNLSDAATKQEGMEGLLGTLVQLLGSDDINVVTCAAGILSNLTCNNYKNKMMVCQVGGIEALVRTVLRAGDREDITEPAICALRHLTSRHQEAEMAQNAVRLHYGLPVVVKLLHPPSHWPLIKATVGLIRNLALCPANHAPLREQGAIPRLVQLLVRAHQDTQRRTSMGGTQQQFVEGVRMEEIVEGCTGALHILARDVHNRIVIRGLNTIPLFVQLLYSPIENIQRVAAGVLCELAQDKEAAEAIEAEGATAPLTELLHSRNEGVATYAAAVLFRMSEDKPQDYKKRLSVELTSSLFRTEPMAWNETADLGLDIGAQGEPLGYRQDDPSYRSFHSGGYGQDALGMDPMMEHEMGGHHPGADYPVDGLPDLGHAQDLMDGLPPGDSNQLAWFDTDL
Where a SMILES comes first, the peptide text is derived from it.
PROPERTY: β-Cat FP Hill slope
Output: the number by itself.

Answered examples (3):
# β-Cat FP Hill slope (compound: CC[C@H](C)[C@H](NC(=O)[C@@H]1CCCN1C(=O)[C@H](Cc1ccccc1)NC(=O)[C@H](Cc1c[nH]c2ccccc12)NC(=O)[C@H](CCSC)NC(=O)[C@H](CCCNC(=N)N)NC(=O)[C@H](CO)NC(=O)[C@@H](N)CCSC)C(=O)N[C@@H](CO)C(=O)N[C@@H](Cc1ccccc1)C(=O)N[C@@H](Cc1c[nH]c2ccccc12)C(=O)NCC(=O)O [compound 65] (H-MSRMWFPISFWG-OH) ) is 0.7

# β-Cat FP Hill slope (compound: CC[C@H](C)[C@H](NC(=O)[C@H](CC(C)C)NC(=O)[C@H](Cc1ccccc1)NC(=O)[C@H](Cc1c[nH]c2ccccc12)NC(=O)[C@@H](N)CCSC)C(=O)N[C@@H](C)C(=O)N[C@@H](C)C(=O)N[C@@H](Cc1c[nH]c2ccccc12)C(=O)NCC(=O)O [compound 212] (H-MWFLIAAWG-OH) ) is 1.05

# β-Cat FP Hill slope (compound: CC[C@H](C)[C@H](NC(=O)[C@H](C)NC(=O)[C@H](Cc1ccccc1)NC(=O)[C@H](Cc1c[nH]c2ccccc12)NC(=O)[C@@H](N)CCSC)C(=O)N[C@@H](CO)C(=O)N[C@@H](Cc1ccccc1)C(=O)N[C@@H](Cc1c[nH]c2ccccc12)C(=O)NCC(=O)O [compound 12] (H-MWFAISFWG-OH) ) is 0.5

More entries:
# β-Cat FP Hill slope (compound: CC[C@H](C)[C@H](NC(=O)[C@H](CC(C)C)NC(=O)[C@H](Cc1ccccc1)NC(=O)[C@H](Cc1c[nH]c2ccccc12)NC(=O)[C@H](C)N)C(=O)N[C@@H](CO)C(=O)N[C@@H](Cc1ccccc1)C(=O)N[C@@H](Cc1c[nH]c2ccccc12)C(=O)NCC(=O)O [compound 209] (H-AWFLISFWG-OH) ) is 0.93

# β-Cat FP Hill slope (compound: CC[C@H](C)[C@H](NC(=O)[C@H](CC(C)C)NC(=O)[C@@H](NC(=O)[C@H](Cc1c[nH]c2ccccc12)NC(=O)[C@H](CCSC)NC(C)=O)[C@@H](C)CC)C(=O)N[C@@H](CO)C(=O)N[C@@H](Cc1ccccc1)C(=O)N[C@@H](Cc1c[nH]c2ccccc12)C(=O)NCC(=O)O [compound 165] (Ac-MWILISFWG-OH) ) is 2.99

# β-Cat FP Hill slope (compound: CC[C@H](C)[C@H](NC(=O)[C@H](CC(C)C)NC(=O)[C@H](Cc1ccccc1)NC(=O)[C@H](Cc1c[nH]c2ccccc12)NC(=O)[C@@H](N)CCSC)C(=O)N[C@@H](CCCCN)C(=O)N[C@@H](Cc1ccccc1)C(=O)N[C@@H](Cc1ccc(O)cc1)C(=O)NCC(=O)O [compound 151] (H-MWFLIKFYG-OH) ) is 0.7
